Provide the reported shrunken log2 fold change of each item.
System: Escherichia coli TOP10
Experiment: shrunken log2 fold change of peptide-encoding DNA abundance (4.5 h post-induction vs induction); higher = less antimicrobial activity (less host growth inhibition)
Settings: time post-induction: 4.5 h; library: site-saturation at positions 5, 18, 19, 20

// query shrunken log2 fold change value for entry RRIRVRPPRLPRPRPRPVWLPRP
0.276

Another sequence to look at: RRIRKRPPRLPRPRPRPAAQPRP
0.814

Another sequence to look at: RRIRLRPPRLPRPRPRPALHPRP
0.135

Another sequence to look at: RRIRARPPRLPRPRPRPMDFPRP
2.73

Another sequence to look at: RRIRIRPPRLPRPRPRPICSPRP
-0.118

Another sequence to look at: RRIRMRPPRLPRPRPRPLYIPRP
-1.01

Another sequence to look at: RRIRCRPPRLPRPRPRPEIEPRP
-0.00676

Another sequence to look at: RRIRARPPRLPRPRPRPDCIPRP
0.446

Another sequence to look at: RRIRWRPPRLPRPRPRPGTLPRP
-0.0473

Another sequence to look at: RRIRTRPPRLPRPRPRPGHKPRP
-0.106

Another sequence to look at: RRIRCRPPRLPRPRPRPYDAPRP
-0.334

Another sequence to look at: RRIRQRPPRLPRPRPRPCGEPRP
-0.0396

Another sequence to look at: RRIRIRPPRLPRPRPRPYNDPRP
-0.313

Another sequence to look at: RRIRTRPPRLPRPRPRPINTPRP
-0.687

Another sequence to look at: RRIRNRPPRLPRPRPRPNKYPRP
-0.774

Another sequence to look at: RRIRARPPRLPRPRPRPQLGPRP
-0.0732

Another sequence to look at: RRIRFRPPRLPRPRPRPHPGPRP
-0.137

Another sequence to look at: RRIRVRPPRLPRPRPRPVKWPRP
-0.0595

Another sequence to look at: RRIRDRPPRLPRPRPRPNSPPRP
-0.0573

Another sequence to look at: RRIRNRPPRLPRPRPRPANIPRP
-0.0793

Another sequence to look at: RRIRKRPPRLPRPRPRPDLQPRP
0.0789

Another sequence to look at: RRIRWRPPRLPRPRPRPHEHPRP
0.0185

Another sequence to look at: RRIRKRPPRLPRPRPRPAEMPRP
-0.00753

Another sequence to look at: RRIRWRPPRLPRPRPRPNEIPRP
0.0563

Another sequence to look at: RRIRMRPPRLPRPRPRPDAEPRP
4.37

Another sequence to look at: RRIRARPPRLPRPRPRPDGNPRP
-0.0344

Another sequence to look at: RRIRTRPPRLPRPRPRPYNAPRP
-1.3

Another sequence to look at: RRIRNRPPRLPRPRPRPWNVPRP
0.00489

Another sequence to look at: RRIRHRPPRLPRPRPRPHQKPRP
-0.0284

Another sequence to look at: RRIRFRPPRLPRPRPRPEVIPRP
0.0373

Another sequence to look at: RRIRLRPPRLPRPRPRPIELPRP
0.00435

Another sequence to look at: RRIRYRPPRLPRPRPRPLQVPRP
-0.0974

Another sequence to look at: RRIRFRPPRLPRPRPRPRFSPRP
0.033

Another sequence to look at: RRIRARPPRLPRPRPRPSHNPRP
-0.245

Another sequence to look at: RRIRKRPPRLPRPRPRPWLEPRP
-0.00226

Another sequence to look at: RRIRDRPPRLPRPRPRPEPCPRP
0.064

Another sequence to look at: RRIRERPPRLPRPRPRPTLVPRP
-0.0681

Another sequence to look at: RRIRGRPPRLPRPRPRPYHQPRP
-0.101

Another sequence to look at: RRIRPRPPRLPRPRPRPPFKPRP
0.0437

Another sequence to look at: RRIRTRPPRLPRPRPRPTCKPRP
-0.047

Another sequence to look at: RRIRARPPRLPRPRPRPKEFPRP
0.355

Another sequence to look at: RRIRYRPPRLPRPRPRPPIIPRP
-0.148

Another sequence to look at: RRIRHRPPRLPRPRPRPHLSPRP
-0.43

Another sequence to look at: RRIRPRPPRLPRPRPRPGQAPRP
-0.0745

Another sequence to look at: RRIRWRPPRLPRPRPRPTLPPRP
0.128

----------
Provide the reported shrunken log2 fold change of each item.
System: Escherichia coli TOP10
Test: shrunken log2 fold change of peptide-encoding DNA abundance (4.5 h post-induction vs induction); higher = less antimicrobial activity (less host growth inhibition)
Settings: time post-induction: 4.5 h; library: site-saturation at positions 5, 18, 19, 20
No unit in the answer, only the number.

Identify the measured shrunken log2 fold change of RRIRNRPPRLPRPRPRPEHLPRP for Escherichia coli TOP10.
0.0408

Another sequence to look at: RRIRNRPPRLPRPRPRPGPLPRP
0.0198

Another sequence to look at: RRIRWRPPRLPRPRPRPRILPRP
0.188

Another sequence to look at: RRIRNRPPRLPRPRPRPGNTPRP
-0.896

Another sequence to look at: RRIRPRPPRLPRPRPRPVADPRP
0.295

Another sequence to look at: RRIRRRPPRLPRPRPRPVIKPRP
-0.121

----------
System: Escherichia coli TOP10
Test: shrunken log2 fold change of peptide-encoding DNA abundance (4.5 h post-induction vs induction); higher = less antimicrobial activity (less host growth inhibition)
Details: time post-induction: 4.5 h; library: site-saturation at positions 5, 18, 19, 20
EXPERIMENTAL_ENDPOINT: shrunken log2 fold change
No unit in the answer, only the number.

// query shrunken log2 fold change value for entry RRIRVRPPRLPRPRPRPAVWPRP
0.458

Another sequence to look at: RRIRTRPPRLPRPRPRPAWMPRP
0.307

Another sequence to look at: RRIRYRPPRLPRPRPRPMPQPRP
-0.318

Another sequence to look at: RRIRDRPPRLPRPRPRPNQRPRP
-0.264

Another sequence to look at: RRIRTRPPRLPRPRPRPQGQPRP
-0.186

Another sequence to look at: RRIRVRPPRLPRPRPRPNQRPRP
0.0593

Another sequence to look at: RRIRIRPPRLPRPRPRPKQFPRP
-0.328

Another sequence to look at: RRIRWRPPRLPRPRPRPTPQPRP
1.63

Another sequence to look at: RRIRNRPPRLPRPRPRPWPQPRP
-0.064

Another sequence to look at: RRIRIRPPRLPRPRPRPYFLPRP
-0.921

Another sequence to look at: RRIRARPPRLPRPRPRPQDSPRP
-0.0459

Another sequence to look at: RRIRPRPPRLPRPRPRPPMFPRP
0.0198

Another sequence to look at: RRIRERPPRLPRPRPRPCEAPRP
-0.041

Another sequence to look at: RRIRDRPPRLPRPRPRPYCNPRP
-0.137

Another sequence to look at: RRIRLRPPRLPRPRPRPVQYPRP
-0.0382

Another sequence to look at: RRIRTRPPRLPRPRPRPSFWPRP
0.277

Another sequence to look at: RRIRIRPPRLPRPRPRPDWCPRP
-0.149

Another sequence to look at: RRIRERPPRLPRPRPRPFEFPRP
-0.629

----------
System: Escherichia coli TOP10;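 further: peptides expressed intracellularly from a pBAD plasmid library in pooled LB shake-flask culture, induced with 0.3% L-arabinose, DNA abundance read by NGS, three biological replicates, DESeq2 with apeglm shrinkage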
Assay: shrunken log2 fold change of peptide-encoding DNA abundance (4.5 h post-induction vs induction); higher = less antimicrobial activity (less host growth inhibition)
Details: time post-induction: 4.5 h; library: site-saturation at positions 5, 18, 19, 20
EXPERIMENTAL_ENDPOINT: shrunken log2 fold change
No unit in the answer, only the number.

// query shrunken log2 fold change value for entry RRIRERPPRLPRPRPRPSAQPRP
-0.167

Another sequence to look at: RRIRIRPPRLPRPRPRPKWYPRP
-0.22

Another sequence to look at: RRIRIRPPRLPRPRPRPEFAPRP
0.452

Another sequence to look at: RRIRWRPPRLPRPRPRPMCYPRP
-0.308

Another sequence to look at: RRIRHRPPRLPRPRPRPQFKPRP
-0.024

Another sequence to look at: RRIRTRPPRLPRPRPRPIHAPRP
-0.0176

Another sequence to look at: RRIRYRPPRLPRPRPRPRHGPRP
-0.0607

Another sequence to look at: RRIRNRPPRLPRPRPRPPREPRP
0.534

Another sequence to look at: RRIRLRPPRLPRPRPRPLDHPRP
-0.1

Another sequence to look at: RRIRWRPPRLPRPRPRPNLTPRP
-0.222

Another sequence to look at: RRIRLRPPRLPRPRPRPTQPPRP
0.634

Another sequence to look at: RRIRVRPPRLPRPRPRPPNEPRP
0.345

Another sequence to look at: RRIRARPPRLPRPRPRPEFPPRP
0.962

Another sequence to look at: RRIRNRPPRLPRPRPRPPIYPRP
-0.202

Another sequence to look at: RRIRPRPPRLPRPRPRPVNMPRP
0.0158

Another sequence to look at: RRIRSRPPRLPRPRPRPCWGPRP
0.109

Another sequence to look at: RRIRMRPPRLPRPRPRPQWGPRP
0.0503

Another sequence to look at: RRIRRRPPRLPRPRPRPGWDPRP
0.0298

Another sequence to look at: RRIRARPPRLPRPRPRPDCWPRP
1.21

Another sequence to look at: RRIRCRPPRLPRPRPRPFEAPRP
0.102

Another sequence to look at: RRIRDRPPRLPRPRPRPYMYPRP
-0.194

Another sequence to look at: RRIRWRPPRLPRPRPRPGPRPRP
0.514

Another sequence to look at: RRIRPRPPRLPRPRPRPAKEPRP
0.0354

Another sequence to look at: RRIRLRPPRLPRPRPRPAFVPRP
0.205

Another sequence to look at: RRIRFRPPRLPRPRPRPNGNPRP
-0.377

Another sequence to look at: RRIRTRPPRLPRPRPRPQCDPRP
-0.184

Another sequence to look at: RRIRFRPPRLPRPRPRPVRKPRP
-0.355

Another sequence to look at: RRIRERPPRLPRPRPRPLRQPRP
0.0463

Another sequence to look at: RRIRDRPPRLPRPRPRPCDKPRP
-0.206

Another sequence to look at: RRIRQRPPRLPRPRPRPKSMPRP
-0.179

Another sequence to look at: RRIRYRPPRLPRPRPRPDDYPRP
0.0219

Another sequence to look at: RRIRARPPRLPRPRPRPPMSPRP
0.414

Another sequence to look at: RRIRYRPPRLPRPRPRPMHWPRP
-0.597

Another sequence to look at: RRIRDRPPRLPRPRPRPCDTPRP
-0.157

Another sequence to look at: RRIRVRPPRLPRPRPRPCWAPRP
0.154

Another sequence to look at: RRIRYRPPRLPRPRPRPKYDPRP
-0.324

Another sequence to look at: RRIRFRPPRLPRPRPRPYLHPRP
-0.454

Another sequence to look at: RRIRIRPPRLPRPRPRPFVPPRP
-0.722

Another sequence to look at: RRIRERPPRLPRPRPRPVMRPRP
0.453

Another sequence to look at: RRIRDRPPRLPRPRPRPDMWPRP
0.0213

Another sequence to look at: RRIRFRPPRLPRPRPRPSETPRP
-0.13

Another sequence to look at: RRIRVRPPRLPRPRPRPHKKPRP
-0.169

Another sequence to look at: RRIRGRPPRLPRPRPRPHERPRP
0.878

Another sequence to look at: RRIRCRPPRLPRPRPRPWPFPRP
-0.121

Another sequence to look at: RRIRHRPPRLPRPRPRPCMPPRP
0.0401

Another sequence to look at: RRIRLRPPRLPRPRPRPGMWPRP
0.164

Data provenance: the supplement of paper PMC9112550
